Measured values drawn from patent US20160237119A1 for this set.

- System Tested: T1, c-Met-Fc chimera protein (UniProt P08581 25-932, limits assumed)
- T1 construct: Captured on the SPR chip by an anti-IgG antibody; not shown: Fc part
- T1 sequence (P08581 25-932 limits assumed, change not shown): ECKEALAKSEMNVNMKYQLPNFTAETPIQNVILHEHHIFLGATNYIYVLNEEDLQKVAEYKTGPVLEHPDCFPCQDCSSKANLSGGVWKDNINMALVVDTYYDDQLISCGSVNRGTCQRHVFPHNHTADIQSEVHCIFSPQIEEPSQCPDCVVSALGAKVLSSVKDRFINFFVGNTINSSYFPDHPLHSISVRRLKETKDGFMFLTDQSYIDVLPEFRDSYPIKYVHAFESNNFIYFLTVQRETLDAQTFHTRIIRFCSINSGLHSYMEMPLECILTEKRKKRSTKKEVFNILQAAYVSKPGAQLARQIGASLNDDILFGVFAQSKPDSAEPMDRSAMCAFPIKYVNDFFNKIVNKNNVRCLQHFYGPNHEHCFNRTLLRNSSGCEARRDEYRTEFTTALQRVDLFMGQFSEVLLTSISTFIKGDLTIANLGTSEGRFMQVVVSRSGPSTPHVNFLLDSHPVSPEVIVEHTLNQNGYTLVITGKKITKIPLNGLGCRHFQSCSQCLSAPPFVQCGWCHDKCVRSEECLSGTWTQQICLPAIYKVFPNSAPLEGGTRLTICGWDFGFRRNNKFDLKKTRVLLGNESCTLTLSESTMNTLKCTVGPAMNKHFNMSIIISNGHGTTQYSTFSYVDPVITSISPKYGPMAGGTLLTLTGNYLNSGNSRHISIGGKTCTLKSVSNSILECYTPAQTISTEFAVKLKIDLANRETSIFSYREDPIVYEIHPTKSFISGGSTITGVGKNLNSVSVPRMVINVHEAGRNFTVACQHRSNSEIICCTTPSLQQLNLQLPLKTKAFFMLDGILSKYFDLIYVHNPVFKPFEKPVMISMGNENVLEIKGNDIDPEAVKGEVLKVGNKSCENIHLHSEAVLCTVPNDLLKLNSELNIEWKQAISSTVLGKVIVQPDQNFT
- Test Protocol: SPR presumed (Biacore as in 9-1; method not given), c-Met-Fc on chip
Bridges are numbered along the chain shown (N, C = ends). Where no end group is shown, it is not given here. [ ]: non-standard residue; d: D form. NMeE = CN[C@@H](CCC(=O)O)C(=O)O; NMeN = CN[C@@H](CC(N)=O)C(=O)O; NMeV = CN[C@H](C(=O)O)C(C)C
Reported Endpoint: koff (s⁻¹)

Completed entries (count: 3):
{CH2CO}-YRQF[NMeN]RRTHEVWNLDCG (thioether N-16 (inferred)) [N5, N-methylated D4-3 peptide]: 0.0039
{CH2CO}-YRQFNRRTH[NMeE]VWNLDCG (thioether N-16) [N10, N-methylated D4-3 peptide]: 0.0075
{CH2CO}-YRQFNRRTHEVWNLDCG (thioether N-16; not fully specified (residues 1, 14); also: one N-methylated residue, position given only by label N14) [N14, N-methylated D4-3 peptide]: 0.0059

a. {CH2CO}-YRQFNRRTHE[NMeV]WNLDCG (thioether N-16) [N11, N-methylated D4-3 peptide]
b. {CH2CO}-YRQFNRRTHEVW[NMeN]LDCG (thioether N-16) [N13, N-methylated D4-3 peptide]
Inquiry: Thinking about recorded koff values, which is higher, a or b ? Response format: the label of the selected entry.
Reply text: a
